- TESTED ON: human Orexin 1 receptor (Homo sapiens, UniProt O43613)
- Construct: stably expressing the full-length human Orexin 1 receptor; expressed in transfected cells; host or cells: CHO-K1 (CHO-K1/hOx1), co-expressing the aequorin photoprotein
- Sequence (O43613 whole entry): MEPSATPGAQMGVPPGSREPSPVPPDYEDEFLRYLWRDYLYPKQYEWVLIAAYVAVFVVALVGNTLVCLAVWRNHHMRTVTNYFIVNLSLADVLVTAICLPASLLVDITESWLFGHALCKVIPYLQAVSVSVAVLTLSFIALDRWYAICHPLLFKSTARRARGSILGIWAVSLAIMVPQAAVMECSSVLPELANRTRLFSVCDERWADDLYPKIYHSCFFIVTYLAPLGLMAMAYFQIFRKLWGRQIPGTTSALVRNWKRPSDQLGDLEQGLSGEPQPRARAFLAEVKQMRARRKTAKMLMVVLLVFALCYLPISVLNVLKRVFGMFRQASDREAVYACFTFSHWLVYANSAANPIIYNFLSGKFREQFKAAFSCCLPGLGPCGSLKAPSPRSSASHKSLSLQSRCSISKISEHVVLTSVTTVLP
- TEST DESCRIPTION: Assay A: OX1R IP1 (in vitro OX1R potency)
- Format: cell-based
- REPORTED CONDITIONS: in words, versus Example 91 in WO2016/034882
READOUT LABEL: OX1R potency compared to Example 91 in WO2016/034882

[
  {
    "ENTRY SMILES": "CCN(C(=O)c1cc(C)ccc1-n1nccn1)[C@@H](C)COc1ncc(C(F)(F)F)cn1",
    "DATA VALUE": "increase"
  },
  {
    "ENTRY SMILES": "CCN(C(=O)c1cccc(C)c1-n1nccn1)[C@@H](C)COc1ncc(C(F)(F)F)cn1",
    "DATA VALUE": "increase"
  },
  {
    "ENTRY SMILES": "CCN(C(=O)c1ccc(C)cc1-n1nccn1)[C@@H](C)COc1ncc(C(F)(F)F)cn1",
    "DATA VALUE": "increase"
  }
]

====

- TESTED ON: human Orexin 1 receptor (Homo sapiens, UniProt O43613)
- Construct: stably expressing the full-length human Orexin 1 receptor; expressed in transfected cells; host or cells: CHO-K1 (CHO-K1/hOx1), co-expressing the aequorin photoprotein
- TEST DESCRIPTION: Assay A: OX1R IP1 (in vitro OX1R potency)
- Assay type: cell-based
- REPORTED CONDITIONS: Table 3; 0.5 nM Orexin A; read-out: Assay A OX1R Kb (Orexin A concentration)
param class (str): category from Kb; see ranges A: < 1 nM; B: ≥ 1 nM and < 2 nM; C: ≥ 2 nM

Previously resolved entries follow.
[
  {
    "MOLECULE": "CCN(C(=O)c1cc(C)ccc1-n1cccn1)[C@@H](C)COc1ncc(C(F)(F)F)cn1 [Example 8]",
    "CAT": "C"
  },
  {
    "MOLECULE": "CCN(C(=O)c1cccc(C)c1-n1nccn1)[C@@H](C)COc1ncc(C(F)(F)F)cn1 [Example 11]",
    "CAT": "B"
  },
  {
    "MOLECULE": "CCN(C(=O)c1cccc(F)c1-c1ncccn1)[C@@H](C)COc1ncc(C(F)(F)F)cn1 [Example 32]",
    "CAT": "A"
  },
  {
    "MOLECULE": "CCN(C(=O)c1ccccc1-c1ncccn1)[C@@H](C)COc1ncc(C(F)(F)F)cn1 [Example 28]",
    "CAT": "A"
  },
  {
    "MOLECULE": "CCN(C(=O)c1ccccc1-n1nccn1)[C@@H](C)COc1ncc(C(F)(F)F)cn1 [Example 24]",
    "CAT": "B"
  }
]

Which bin, given its Kb, does CCN(C(=O)c1cccc(F)c1-n1nccn1)[C@@H](C)COc1ncc(C(F)(F)F)cn1 [Example 1] occupy?
B

// next record CCN(C(=O)c1cccc(F)c1-c1nnc(C)o1)[C@@H](C)COc1ncc(C(F)(F)F)cn1 [Example 18]
C

// next record CCN(C(=O)c1ccccc1-c1cnc(C)o1)[C@@H](C)COc1ncc(C(F)(F)F)cn1 [Example 31]
C

Values were extracted from patent US10392369B2.
